- Tested on: NCI-H1944
- experiment_notes: relative viability (nuclei count vs DMSO), 5 days (fraction); higher = more cells survive
- run_conditions: first compound 2.53 µM

{"compound": "O=c1cc(-c2cccc3c2Sc2ccccc2S3)oc(N2CCOCC2)c1 + COc1cccc2cc(-c3nc([C@H]4CC[C@H](C(=O)O)CC4)n4ncnc(N)c34)[nH]c12 [OSI-027] (partner 0.5 µM)", "assay_target": "NCI-H1944", "relative viability": 0.34}
{"compound": "COc1nc(C)cnc1NS(=O)(=O)c1cccnc1-c1ccc(-c2nnco2)cc1 [Zibotentan] + CS(=O)(=O)N1CCN(Cc2cc3nc(-c4cccc5[nH]ncc45)nc(N4CCOCC4)c3s2)CC1 [Pictilisib] (partner 1 µM)", "assay_target": "NCI-H1944", "relative viability": 0.393}
{"compound": "COc1nc(C)cnc1NS(=O)(=O)c1cccnc1-c1ccc(-c2nnco2)cc1 [Zibotentan] + CC1(C)CCC(c2ccc(Cl)cc2)=C(CN2CCN(c3ccc(C(=O)NS(=O)(=O)c4ccc(N[C@H](CCN5CCOCC5)CSc5ccccc5)c(S(=O)(=O)C(F)(F)F)c4)cc3)CC2)C1 [Navitoclax] (partner 0.5 µM)", "assay_target": "NCI-H1944", "relative viability": 1.03}
{"compound": "O=c1cc(-c2cccc3c2Sc2ccccc2S3)oc(N2CCOCC2)c1 + CCNC(=O)c1noc(-c2cc(C(C)C)c(O)cc2O)c1-c1ccc(CN2CCOCC2)cc1 [Luminespib] (partner 0.01 µM)", "assay_target": "NCI-H1944", "relative viability": 0.684}
{"compound": "COc1nc(C)cnc1NS(=O)(=O)c1cccnc1-c1ccc(-c2nnco2)cc1 [Zibotentan] + O=C(c1cc(Cc2n[nH]c(=O)c3ccccc23)ccc1F)N1CCN(C(=O)C2CC2)CC1 [Olaparib] (partner 8 µM)", "assay_target": "NCI-H1944", "relative viability": 0.406}
{"compound": "COc1nc(C)cnc1NS(=O)(=O)c1cccnc1-c1ccc(-c2nnco2)cc1 [Zibotentan] + N=C(N)NC(=N)NCCc1ccccc1 [Phenformin] (partner 250 µM)", "assay_target": "NCI-H1944", "relative viability": 0.202}
{"compound": "COc1nc(C)cnc1NS(=O)(=O)c1cccnc1-c1ccc(-c2nnco2)cc1 [Zibotentan] + O=C(CCCCCCC(=O)Nc1ccccc1)NO [Vorinostat] (partner 1 µM)", "assay_target": "NCI-H1944", "relative viability": 0.631}
{"compound": "O=c1cc(-c2cccc3c2Sc2ccccc2S3)oc(N2CCOCC2)c1 + CC(=O)c1c(C)c2cnc(Nc3ccc(N4CCNCC4)cn3)nc2n(C2CCCC2)c1=O [Palbociclib] (partner 0.5 µM)", "assay_target": "NCI-H1944", "relative viability": 0.335}
{"compound": "O=c1cc(-c2cccc3c2Sc2ccccc2S3)oc(N2CCOCC2)c1 + Nc1ncn([C@H]2C[C@H](O)[C@@H](CO)O2)c(=O)n1 [Decitabine] (partner 2 µM)", "assay_target": "NCI-H1944", "relative viability": 0.432}
{"compound": "COc1nc(C)cnc1NS(=O)(=O)c1cccnc1-c1ccc(-c2nnco2)cc1 [Zibotentan] + Nc1ncn([C@H]2C[C@H](O)[C@@H](CO)O2)c(=O)n1 [Decitabine] (partner 2 µM)", "assay_target": "NCI-H1944", "relative viability": 0.426}
{"compound": "O=c1cc(-c2cccc3c2Sc2ccccc2S3)oc(N2CCOCC2)c1 + CC(=O)Nc1cccc(-n2c(=O)n(C3CC3)c(=O)c3c(Nc4ccc(I)cc4F)n(C)c(=O)c(C)c32)c1 [Trametinib] (partner 0.02 µM)", "assay_target": "NCI-H1944", "relative viability": 0.428}
{"compound": "O=c1cc(-c2cccc3c2Sc2ccccc2S3)oc(N2CCOCC2)c1 + O=C(c1cc(Cc2n[nH]c(=O)c3ccccc23)ccc1F)N1CCN(C(=O)C2CC2)CC1 [Olaparib] (partner 8 µM)", "assay_target": "NCI-H1944", "relative viability": 0.43}
